For Histone deacetylase 8 (Homo sapiens, UniProt Q9BY41), measured pIC50 is reported for the entries below.
pIC50: −log10 of the molar value.

smiles-notation: C[n+]1cncc(C#N)c1
pIC50: < 4.30
--
smiles-notation: C#Cc1ccn[nH]1
pIC50: < 4.30
--
smiles-notation: N#Cc1ccccn1
pIC50: < 4.30
--
smiles-notation: N#Cc1c[nH]cn1
pIC50: < 4.30
--
smiles-notation: C[n+]1ccnc(Cl)c1
pIC50: 5.64
--
smiles-notation: C=Cc1cc[n+](C)cc1
pIC50: 5.47
--
smiles-notation: Ic1ncccn1
pIC50: 5.65
--
smiles-notation: Ic1cnccn1
pIC50: < 4.30

-- ask # return recorded pIC50 for entry C#Cc1cn[nH]c1
-- reply < 4.30

-- ask Please give measured pIC50 of the following entry: C=Cc1cc[n+](C)n1C
-- reply < 4.30

====

Below are compounds with their IC50 as measured on Histone deacetylase 8 (Homo sapiens).

Solved cases (3 shown):
smiles-notation: Clc1ccncn1
measured-target: Histone deacetylase 8 (Homo sapiens)
result: > 50 µM
--
smiles-notation: C[n+]1cnccc1C#N
measured-target: Histone deacetylase 8 (Homo sapiens)
result: 3.6 µM
--
smiles-notation: Clc1cncnc1
measured-target: Histone deacetylase 8 (Homo sapiens)
result: > 50 µM

-- ask Could you please provide reported IC50 for Cn1cc(I)c[n+]1C ? Thanks!
-- reply 9 µM

-- ask Give recorded IC50. C[n+]1cnccc1Cl
-- reply > 50 µM

-- ask State its IC50 for this compound: Ic1ccn[nH]1
-- reply > 50 µM

-- ask Answer with the recorded IC50 for the compound listed here: Cn1c(I)cc[n+]1C
-- reply 19 µM

-- ask Note down IC50 recorded for C#Cc1cncnc1
-- reply > 50 µM

====

The reader will find IC50 measurements below, all made with Histone deacetylase 8 (Homo sapiens, UniProt Q9BY41).

The examples below pair each entry with its known result.
molecule: N#Cc1ncc[nH]1
measured-target: Histone deacetylase 8 (Homo sapiens, UniProt Q9BY41)
IC50: > 50 µM
--
molecule: Brc1nccs1
measured-target: Histone deacetylase 8 (Homo sapiens, UniProt Q9BY41)
IC50: > 50 µM
--
molecule: Cc1noc(C)c1I
measured-target: Histone deacetylase 8 (Homo sapiens, UniProt Q9BY41)
IC50: > 50 µM

-- ask // fetch IC50; item: Clc1cn[nH]c1 ; system: Histone deacetylase 8 (Homo sapiens, UniProt Q9BY41)
-- reply > 50 µM

-- ask Give IC50 only, for Cn1cc[n+](C)c1I , using Histone deacetylase 8 (Homo sapiens, UniProt Q9BY41) data.
-- reply 1.8 µM

-- ask Write IC50 of C#Cc1cccnc1 ; system used: Histone deacetylase 8 (Homo sapiens, UniProt Q9BY41)
-- reply > 50 µM

====

- measured-target: Histone deacetylase 8 (Homo sapiens)
- Sequence (Q9BY41 whole entry): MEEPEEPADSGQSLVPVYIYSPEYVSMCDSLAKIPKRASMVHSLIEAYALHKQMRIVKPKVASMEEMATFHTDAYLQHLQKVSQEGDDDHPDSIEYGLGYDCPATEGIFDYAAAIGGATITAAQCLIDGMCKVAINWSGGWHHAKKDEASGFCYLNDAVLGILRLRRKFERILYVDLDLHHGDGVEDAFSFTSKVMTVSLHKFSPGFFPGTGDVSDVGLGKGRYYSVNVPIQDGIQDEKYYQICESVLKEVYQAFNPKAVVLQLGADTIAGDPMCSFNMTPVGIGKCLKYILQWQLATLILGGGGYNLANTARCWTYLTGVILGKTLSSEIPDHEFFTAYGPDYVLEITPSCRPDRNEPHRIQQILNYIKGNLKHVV
pIC50: −log10 of the molar value.
measured-attribute: pIC50

P = Cc1o[n+](C)c(C)c1I
Q = C[n+]1ccc(C#N)cc1
-- ask Consider entries P and Q . Which has the numerically lower pIC50? Please indicate the selected item by its label.
-- reply Q
